Assay: chemical genetic growth profiling, strain panel (AID 1159580);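 also: tested at 20 µM; growth read once vehicle control cultures reached saturation at 30 °C; 1 = growth at the plate median or of vehicle wells; lower values mean less growth of the strain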
Details: S. cerevisiae deletion strains, growth OD, locus YCL029C, strain bik1, active compounds read low
About 2,000 (36%) of roughly 5,500 compounds were called active. Not shown: some 18% with an inconclusive outcome. This is one part of the list.
Assignment: determine reported normalized growth for the given molecules.
Give bare numbers.

Illustrative cases are given below, each with its answer.
molecule	normalized growth
CC[C@H]1CN2CCc3cc(OC)c(OC)cc3C2C[C@@H]1CC1NCCc2cc(OC)c(OC)cc21 (some centres undefined)	0.989
O=C(OC[C@H]1O[C@H](OC(=O)c2cc(O)c(O)c(OC(=O)c3cc(O)c(O)c(O)c3)c2)[C@H](OC(=O)c2cc(O)c(O)c(OC(=O)c3cc(O)c(O)c(O)c3)c2)[C@@H](OC(=O)c2cc(O)c(O)c(OC(=O)c3cc(O)c(O)c(O)c3)c2)[C@@H]1OC(=O)c1cc(O)c(O)c(OC(=O)c2cc(O)c(O)c(O)c2)c1)c1cc(O)c(O)c(OC(=O)c2cc(O)c(O)c(O)c2)c1	0.0912
COc1ccc2c(c1)[C@]13CCCC[C@H]1[C@H](C2)N(C)CC3	0.988

State the recorded normalized growth for every item in the following list.
1. COc1cc2c(cc1O)CCNC2C (centres undefined)
2. CC(=O)NO
3. CCNc1nc(Cl)nc(NCC)n1
4. c1ccc([C@H]2CN3CCSC3=N2)cc1
5. NC(=O)NO

[0.968, 0.999, 0.999, 1.01, 1]

What value of normalized growth has been reported for the following molecule? CC[C@@H](CO)NC(=O)[C@@H]1C=C2c3cccc4[nH]cc(c34)C[C@H]2N(C)C1 0.984

Attribution: PubChem BioAssay AID1159580
